Every entry's value here was drawn from patent US20240116985A1.

# tested-target: T1, B-cat-Halo (beta-catenin HaloTag fusion expressed in HEK293 cells) (UniProt P35222 1-781, HaloTag labelled with HaloTag NanoBRET 618 Ligand)
# T1 sequence (looked up): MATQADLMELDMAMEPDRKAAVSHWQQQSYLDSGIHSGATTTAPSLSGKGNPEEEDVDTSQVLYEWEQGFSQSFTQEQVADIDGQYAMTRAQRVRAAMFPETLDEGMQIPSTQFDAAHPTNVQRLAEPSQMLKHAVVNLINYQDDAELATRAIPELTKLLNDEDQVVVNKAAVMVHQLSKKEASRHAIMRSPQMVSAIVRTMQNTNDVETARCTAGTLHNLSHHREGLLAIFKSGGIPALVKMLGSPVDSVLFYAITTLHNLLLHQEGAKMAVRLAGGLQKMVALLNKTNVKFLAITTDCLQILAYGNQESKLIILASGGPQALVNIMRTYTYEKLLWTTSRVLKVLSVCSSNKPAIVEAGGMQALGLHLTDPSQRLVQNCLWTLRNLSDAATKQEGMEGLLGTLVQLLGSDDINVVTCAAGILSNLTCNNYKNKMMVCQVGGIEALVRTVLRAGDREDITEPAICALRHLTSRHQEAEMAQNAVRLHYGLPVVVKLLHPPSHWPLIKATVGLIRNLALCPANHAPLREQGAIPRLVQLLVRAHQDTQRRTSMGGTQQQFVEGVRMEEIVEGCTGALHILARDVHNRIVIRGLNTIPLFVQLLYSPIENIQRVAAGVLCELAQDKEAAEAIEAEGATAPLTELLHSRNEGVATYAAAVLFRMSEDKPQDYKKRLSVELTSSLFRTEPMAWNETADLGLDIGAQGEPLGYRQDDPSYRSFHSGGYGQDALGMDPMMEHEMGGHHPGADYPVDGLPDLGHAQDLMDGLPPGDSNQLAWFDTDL
# procedure-text: cell-based or functional assay
Starred links: 1 amine or outer side, 2 acyl side, 3 side chain; linkers in the order of their positions; H or OH if unused. Positions of bridges follow the written chain, without caps; N, C: chain ends. Non-standard residues stand in square brackets, D forms with d. Primed or numbered codes have the meaning given here. PyrS2″ = (S)-3-amino-1-((pent-4-en-1-yloxy)carbonyl)pyrrolidine-3-carboxylic acid (stapling residue), C=CCCCOC(=O)N1CC[C@@](N[*:1])(C(=O)[*:2])C1; PyrS2 = (S)-3-amino-1-((pent-4-en-1-yloxy)carbonyl)pyrrolidine-3-carboxylic acid, C=CCCCOC(=O)N1CC[C@@](N[*:1])(C(=O)[*:2])C1; B5(27) = 2-amino-2-(pent-4-en-1-yl)hept-6-enoic acid (two alkene side-chain arms), C=CCCCC(CCCC=C)(N[*:1])C(=O)[*:2]; F2PipNva = (S)-2-amino-5-(4,4-difluoropiperidin-1-yl)pentanoic acid, O=C([C@H](CCCN1CCC(F)(F)CC1)N[*:1])[*:2]; B5(3) = 2,2-bis(4-pentenyl)glycine (stitching residue), C=CCCCC(CCCC=C)(N[*:1])C(=O)[*:2]; Bta = N[C@@H](Cc1csc2ccccc12)C(=O)O; αAllylPro = C=CC[C@@]1(C(=O)O)CCCN1; tBuAla = CC(C)(C)C[C@H](N)C(=O)O; 3Thi = N[C@@H](Cc1ccsc1)C(=O)O
# NanoBRET Abs IC50 per entry
Give just the number in µM; leave the unit off.

Lookup: Consider the binder Ac-[αAllylPro]D[tBuAla][B5(27)]DDAAFL[PyrS2][3Thi][Bta]S-NH2 (staple 1-4, 4-11) [I-1493] and give its recorded NanoBRET Abs IC50.
Found: 4.9

Lookup: Consider the binder Ac-[αAllylPro]D[tBuAla][B5(27)]DDAAFL[PyrS2][3Thi][Bta][dQ]-NH2 (staple 1-4, 4-11) [I-1500] and give its recorded NanoBRET Abs IC50.
Found: 4.7

Lookup: Consider the binder Ac-[αAllylPro]D[tBuAla][B5(3)]DDAAF[F2PipNva][PyrS2″][3Thi][Bta]Q-NH2 (staple 1-4, 4-11) [I-1486] and give its recorded NanoBRET Abs IC50.
Found: 17.9

New cases:
Lookup: Consider the binder Ac-[αAllylPro]D[tBuAla][B5(27)]DDAAFL[PyrS2][3Thi][Bta]W-NH2 (staple 1-4, 4-11) [I-1497] and give its recorded NanoBRET Abs IC50.
Found: 11.4
